- System: Serum Free Fatty Acid
- experimental_protocol: Hypolipidemic effect: serum free fatty acid
- Format: in vivo, rat (Wistar-strain)
- conditions_used: Rattus norvegicus; 100 mg/kg oral, 2 h; vs control; read-out: Serum Free Fatty Acid Decrease
Parameter threshold = 40%. Response is yes (1) when inhibition in vivo at 100 mg/kg meets or exceeds it, else no (0).

| molecule | answer_label |
| --- | --- |
| CCCCN1C(=O)NC(=O)C1=O [compound 4, 1-butylimidazolidinetrione] | yes (1) |
| O=C1NC(=O)N(C2CCCCC2)C1=O [compound 11, 1-cyclohexylimidazolidinetrione] | no (0) |
| Cc1ccccc1CN1C(=O)NC(=O)C1=O [compound 24, 1-(2-methylbenzyl)imidazolidinetrione] | no (0) |

Asked: State whether the measured inhibition in vivo at 100 mg/kg reaches 40%, counting equality as reaching it, for CN1C(=O)C(=O)N(C)C1=O [compound 12, 1,3-dimethylimidazolidinetrione]
Given back: no (0)

Asked: State whether the measured inhibition in vivo at 100 mg/kg reaches 40%, counting equality as reaching it, for O=C1NC(=O)N(Cc2ccccc2)C1=O [compound 15, 1-benzylimidazolidinetrione]
Given back: no (0)

Asked: State whether the measured inhibition in vivo at 100 mg/kg reaches 40%, counting equality as reaching it, for CN1C(=O)NC(=O)C1=O [compound 2, 1-methylimidazolidinetrione]
Given back: yes (1)

Asked: State whether the measured inhibition in vivo at 100 mg/kg reaches 40%, counting equality as reaching it, for O=C1NC(=O)N(Cc2ccc(Br)cc2)C1=O [compound 21, 1-(4-bromobenzyl)imidazolidinetrione]
Given back: no (0)

Asked: State whether the measured inhibition in vivo at 100 mg/kg reaches 40%, counting equality as reaching it, for O=C1NC(=O)N(Cc2ccc(F)cc2)C1=O [compound 18, 1-(4-fluorobenzyl)imidazolidinetrione]
Given back: no (0)

###

- System: Blood Glucose
- experimental_protocol: Hypoglycemic effect in glucose-loaded fasted rats (blood glucose)
- Format: in vivo, rat (Wistar-strain)
- conditions_used: Table 2; 100 mg/kg oral, 2 h; control 133 ± 6
reported_metric: Blood Glucose Level (mg/dL)
Give just the number in mg/dL; leave the unit off.

| smiles_data | system_under_test | Blood Glucose Level, mg/dL |
| --- | --- | --- |
| CCCCCCN1C(=O)NC(=O)C1=O | Blood Glucose | 102 |
| CN1C(=O)NC(=O)C1=O | Blood Glucose | 99 |

Proceeding to the next compound to report its Blood Glucose Level.
Asked: # lookup: Blood Glucose Level of O=C1NC(=O)N(C2CCCC2)C1=O
Given back: 100
